Molecular target: Human plasma kallikrein (Homo sapiens (Human))
Sequence (P03952 391-638): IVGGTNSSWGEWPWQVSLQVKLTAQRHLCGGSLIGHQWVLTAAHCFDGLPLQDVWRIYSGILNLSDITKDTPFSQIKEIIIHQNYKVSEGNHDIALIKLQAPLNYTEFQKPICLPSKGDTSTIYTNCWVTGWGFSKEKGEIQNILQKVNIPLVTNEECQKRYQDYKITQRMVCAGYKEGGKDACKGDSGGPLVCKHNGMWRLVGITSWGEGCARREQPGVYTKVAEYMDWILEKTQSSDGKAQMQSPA
Sequence (P03952 20-390 partner): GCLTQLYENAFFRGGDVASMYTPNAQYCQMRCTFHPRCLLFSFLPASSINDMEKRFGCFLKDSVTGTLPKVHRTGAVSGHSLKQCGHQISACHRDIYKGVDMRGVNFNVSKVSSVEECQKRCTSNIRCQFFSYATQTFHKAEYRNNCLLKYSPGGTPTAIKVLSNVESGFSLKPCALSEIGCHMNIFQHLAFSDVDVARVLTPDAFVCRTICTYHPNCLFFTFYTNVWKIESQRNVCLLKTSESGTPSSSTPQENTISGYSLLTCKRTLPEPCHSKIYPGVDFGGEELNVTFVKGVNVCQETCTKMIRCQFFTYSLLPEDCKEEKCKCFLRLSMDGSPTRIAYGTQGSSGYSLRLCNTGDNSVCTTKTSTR
Test: Determination of the IC50 for plasma kallikrein (fluorogenic substrate H-DPro-Phe-Arg-AFC)
Conditions: 37° C., read-out: IC50 (human PKaI)
The label 1 is reserved for IC50 strictly under 10 nM; -1 covers values equal to or above it.

chemical_string	label_class
CCN(CC)c1ncc(Cn2cc(C(=O)NCc3ccc4c(N)nccc4c3)c(C3CC3)n2)cc1F	-1
Cc1cnn(Cc2ccc(Cc3nc(C)c(C(=O)NCc4ccc5c(N)nccc5c4)s3)cc2)c1	-1
O=C(NCc1n[nH]c2ccc(Cl)cc12)c1cn(Cc2ccc(Cn3ccccc3=O)cc2)nc1C(F)(F)F	1
Cc1cnn(Cc2ccc(Cn3cc(C(=O)NCc4cnc5[nH]ccc5c4)c(C4CC4)n3)cc2)c1	-1
Cc1cnn(Cc2ccc(Cn3cc(C(=O)NCc4c(C)nc5[nH]ccc5c4C)cn3)cc2)c1	-1

Lookup: In plain terms, does `COCCN(C)c1ccc(Cn2cc(C(=O)NCc3ccc4c(N)nccc4c3)c(C3CC3)n2)cn1` come in under 10 nM for IC50?
Found: -1

Lookup: Record `C[C@@H]1CCCN1c1ccc(Cn2cc(C(=O)NCc3ccc4c(N)nccc4c3)c(C(F)(F)F)n2)cn1` : is its IC50 strictly below 10 nM?
Found: -1

Lookup: # strict comparison: is reported IC50 < 10 nM? input = `Cc1cnn(Cc2ccc(Cn3cc(C(=O)NCc4ccc5c(N)nccc5c4)c(C)n3)cc2)c1`
Found: 1

Lookup: Input `Cc1cnn(Cc2ccc(Cn3cc(C(=O)NCc4ccc5c(N)nccc5c4)c(N)n3)cc2)c1` ; condition: IC50 strictly below 10 nM. Does it hold?
Found: 1

Lookup: Determine whether this compound shows IC50 lower than 10 nM (ties excluded): `Cc1cnn(Cc2ccc(Cn3cc(C(=O)NCc4ccc5c(N)nccc5c4)c(-c4ccsc4)n3)cc2)c1`
Found: 1
